Data credit: BigSolDB 2.1

# measurement conditions: in n-butanol, 303.15 K
quantity name: solubility (mole fraction)

| smiles text | quantitative result |
| --- | --- |
| Cc1cc(Cl)cc(C(=O)O)c1N | 0.0082 |

====

# measurement conditions: in isopropanol, 293.15 K

| smiles text | solubility (mole fraction) |
| --- | --- |
| Cc1cc(Cl)cc(C(=O)O)c1N | 0.00809 |

====

# measurement conditions: in ethyl acetate, 323.15 K
quantity name: solubility (mole fraction)

| smiles text | quantitative result |
| --- | --- |
| Cc1cc(Cl)cc(C(=O)O)c1N | 0.0162 |

====

# measurement conditions: in methanol, 293.15 K
quantity name: solubility (mole fraction)

| smiles text | quantitative result |
| --- | --- |
| Cc1cc(Cl)cc(C(=O)O)c1N | 0.00241 |

====

# measurement conditions: in acetonitrile, 278.15 K

| smiles text | solubility (mole fraction) |
| --- | --- |
| Cc1cc(Cl)cc(C(=O)O)c1N | 0.00122 |

====

# measurement conditions: in acetonitrile, 298.15 K

| smiles text | solubility (mole fraction) |
| --- | --- |
| Cc1cc(Cl)cc(C(=O)O)c1N | 0.00173 |

====

# measurement conditions: in isopropanol, 283.15 K

| smiles text | solubility (mole fraction) |
| --- | --- |
| Cc1cc(Cl)cc(C(=O)O)c1N | 0.00744 |

====

# measurement conditions: in ethanol, 313.15 K
quantity name: solubility (mole fraction)

| smiles text | quantitative result |
| --- | --- |
| Cc1cc(Cl)cc(C(=O)O)c1N | 0.0114 |

====

# measurement conditions: in n-butanol, 313.15 K
quantity name: solubility (mole fraction)

| smiles text | result |
| --- | --- |
| Cc1cc(Cl)cc(C(=O)O)c1N | 0.0109 |

====

# measurement conditions: in n-hexane, 323.15 K
quantity name: solubility (mole fraction)

| smiles text | quantity name | quantitative result |
| --- | --- | --- |
| Cc1cc(Cl)cc(C(=O)O)c1N | solubility (mole fraction) | 0.00113 |

====

# measurement conditions: in ethyl acetate, 288.15 K
quantity name: solubility (mole fraction)

| smiles text | quantitative result |
| --- | --- |
| Cc1cc(Cl)cc(C(=O)O)c1N | 0.0071 |

====

# measurement conditions: in methanol, 318.15 K
quantity name: solubility (mole fraction)

| smiles text | quantity name | quantitative result |
| --- | --- | --- |
| Cc1cc(Cl)cc(C(=O)O)c1N | solubility (mole fraction) | 0.00672 |

====

# measurement conditions: in n-butanol, 293.15 K
quantity name: solubility (mole fraction)

| smiles text | quantity name | quantitative result |
| --- | --- | --- |
| Cc1cc(Cl)cc(C(=O)O)c1N | solubility (mole fraction) | 0.00648 |

====

# measurement conditions: in isopropanol, 308.15 K

| smiles text | solubility (mole fraction) |
| --- | --- |
| Cc1cc(Cl)cc(C(=O)O)c1N | 0.00977 |

====

# measurement conditions: in ethanol, 278.15 K

| smiles text | solubility (mole fraction) |
| --- | --- |
| Cc1cc(Cl)cc(C(=O)O)c1N | 0.00708 |

====

# measurement conditions: in ethyl acetate, 318.15 K
quantity name: solubility (mole fraction)

| smiles text | quantity name | quantitative result |
| --- | --- | --- |
| Cc1cc(Cl)cc(C(=O)O)c1N | solubility (mole fraction) | 0.0138 |

====

# measurement conditions: in isopropanol, 278.15 K

| smiles text | solubility (mole fraction) |
| --- | --- |
| Cc1cc(Cl)cc(C(=O)O)c1N | 0.00728 |

====

# measurement conditions: in acetone, 278.15 K
quantity name: solubility (mole fraction)

| smiles text | quantitative result |
| --- | --- |
| Cc1cc(Cl)cc(C(=O)O)c1N | 0.0119 |

====

# measurement conditions: in acetonitrile, 283.15 K

| smiles text | solubility (mole fraction) |
| --- | --- |
| Cc1cc(Cl)cc(C(=O)O)c1N | 0.00126 |

====

# measurement conditions: in ethanol, 323.15 K

| smiles text | solubility (mole fraction) |
| --- | --- |
| Cc1cc(Cl)cc(C(=O)O)c1N | 0.0144 |

====

# measurement conditions: in ethanol, 298.15 K

| smiles text | solubility (mole fraction) |
| --- | --- |
| Cc1cc(Cl)cc(C(=O)O)c1N | 0.00867 |

====

# measurement conditions: in n-butanol, 298.15 K
quantity name: solubility (mole fraction)

| smiles text | quantity name | quantitative result |
| --- | --- | --- |
| Cc1cc(Cl)cc(C(=O)O)c1N | solubility (mole fraction) | 0.00729 |

====

# measurement conditions: in n-propanol, 308.15 K

| smiles text | solubility (mole fraction) |
| --- | --- |
| Cc1cc(Cl)cc(C(=O)O)c1N | 0.00936 |

====

# measurement conditions: in acetone, 323.15 K
quantity name: solubility (mole fraction)

| smiles text | quantitative result |
| --- | --- |
| Cc1cc(Cl)cc(C(=O)O)c1N | 0.0436 |

====

# measurement conditions: in ethyl acetate, 313.15 K
quantity name: solubility (mole fraction)

| smiles text | result |
| --- | --- |
| Cc1cc(Cl)cc(C(=O)O)c1N | 0.012 |

====

# measurement conditions: in acetone, 303.15 K

| smiles text | solubility (mole fraction) |
| --- | --- |
| Cc1cc(Cl)cc(C(=O)O)c1N | 0.0227 |

====

# measurement conditions: in methanol, 308.15 K
quantity name: solubility (mole fraction)

| smiles text | quantity name | quantitative result |
| --- | --- | --- |
| Cc1cc(Cl)cc(C(=O)O)c1N | solubility (mole fraction) | 0.00452 |

====

# measurement conditions: in n-butanol, 278.15 K
quantity name: solubility (mole fraction)

| smiles text | quantitative result |
| --- | --- |
| Cc1cc(Cl)cc(C(=O)O)c1N | 0.00553 |

====

# measurement conditions: in acetonitrile, 323.15 K

| smiles text | solubility (mole fraction) |
| --- | --- |
| Cc1cc(Cl)cc(C(=O)O)c1N | 0.00423 |

====

# measurement conditions: in isopropanol, 288.15 K

| smiles text | solubility (mole fraction) |
| --- | --- |
| Cc1cc(Cl)cc(C(=O)O)c1N | 0.0077 |

====

# measurement conditions: in n-hexane, 318.15 K

| smiles text | solubility (mole fraction) |
| --- | --- |
| Cc1cc(Cl)cc(C(=O)O)c1N | 0.000959 |

====

# measurement conditions: in acetonitrile, 308.15 K
quantity name: solubility (mole fraction)

| smiles text | quantity name | quantitative result |
| --- | --- | --- |
| Cc1cc(Cl)cc(C(=O)O)c1N | solubility (mole fraction) | 0.0023 |

====

# measurement conditions: in acetonitrile, 303.15 K
quantity name: solubility (mole fraction)

| smiles text | result |
| --- | --- |
| Cc1cc(Cl)cc(C(=O)O)c1N | 0.00198 |

====

# measurement conditions: in ethanol, 318.15 K
quantity name: solubility (mole fraction)

| smiles text | quantity name | quantitative result |
| --- | --- | --- |
| Cc1cc(Cl)cc(C(=O)O)c1N | solubility (mole fraction) | 0.0129 |

====

# measurement conditions: in acetone, 308.15 K

| smiles text | solubility (mole fraction) |
| --- | --- |
| Cc1cc(Cl)cc(C(=O)O)c1N | 0.0266 |

====

# measurement conditions: in methanol, 303.15 K

| smiles text | solubility (mole fraction) |
| --- | --- |
| Cc1cc(Cl)cc(C(=O)O)c1N | 0.00375 |

====

# measurement conditions: in methanol, 278.15 K

| smiles text | solubility (mole fraction) |
| --- | --- |
| Cc1cc(Cl)cc(C(=O)O)c1N | 0.00128 |

====

# measurement conditions: in n-propanol, 283.15 K

| smiles text | solubility (mole fraction) |
| --- | --- |
| Cc1cc(Cl)cc(C(=O)O)c1N | 0.00552 |

====

# measurement conditions: in n-propanol, 303.15 K
quantity name: solubility (mole fraction)

| smiles text | quantitative result |
| --- | --- |
| Cc1cc(Cl)cc(C(=O)O)c1N | 0.00803 |

====

# measurement conditions: in methanol, 288.15 K
quantity name: solubility (mole fraction)

| smiles text | result |
| --- | --- |
| Cc1cc(Cl)cc(C(=O)O)c1N | 0.00199 |

====

# measurement conditions: in n-butanol, 323.15 K
quantity name: solubility (mole fraction)

| smiles text | quantity name | quantitative result |
| --- | --- | --- |
| Cc1cc(Cl)cc(C(=O)O)c1N | solubility (mole fraction) | 0.016 |

====

# measurement conditions: in ethanol, 303.15 K
quantity name: solubility (mole fraction)

| smiles text | quantity name | quantitative result |
| --- | --- | --- |
| Cc1cc(Cl)cc(C(=O)O)c1N | solubility (mole fraction) | 0.00934 |
